experiment: protection of differentiated C2C12 cells from simvastatin – single point, plate reader, primary screen (AID 602340); conditions: C2C12 myotubes + simvastatin, ATP luminescence, 48 h; at 7.49 µM; scaled: DMSO 0, geranylgeraniol control 100;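 further: myotubes were challenged with 10 µM simvastatin during compound exposure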
The whole screen tested about 330,000 compounds, of which about 2,600 (0.79%) were called active.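 How the source made its calls: active means mean ATP rescue above about 67%, or every replicate alone reaching that limit (limit read from the data, passing the limit was not always enough); inconclusive means no clear call, values can overlap the other calls; inactive means mean under the limit and some replicate under it.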 The list comes from a sample in which actives are over-represented; it also holds close analogues and randomly drawn compounds.
// allowed return values: active, inactive

Worked examples follow.
1) CC1(C)Cc2cccc(OCC(=O)Nc3nccs3)c2O1; inactive
2) C[C@@H]1CCCCO[C@@H](CN(C)S(C)(=O)=O)[C@H](C)CN([C@@H](C)CO)C(=O)c2cc(NS(=O)(=O)c3ccc(F)cc3)ccc2O1; active
3) C[C@@H]1CCCCO[C@@H](CN(C)S(C)(=O)=O)[C@@H](C)CN([C@@H](C)CO)C(=O)c2cc(NS(=O)(=O)c3ccc(Cl)cc3)ccc2O1; inactive
4) C[C@@H]1CN([C@H](C)CO)C(=O)Cc2cc(NC(=O)Cn3cnnn3)ccc2O[C@H]1CN(C)CC1CCCCC1; inactive
5) COc1ccccc1CNC(=O)C[C@@H]1CC[C@H](NC(=O)CN(C)C)[C@@H](CO)O1; inactive

What did the test return for OCCCNC(c1ccccc1)c1ccc(O)cc1 (configuration not stated) ? active

What did the test return for `OCc1ccc(OCCCOc2cccc3cccnc23)cc1` ? inactive
